assay-overview: chemical genetic growth profiling, strain panel (AID 1159580);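 note: tested at 20 µM; growth read once vehicle control cultures reached saturation at 30 °C; 1 = growth at the plate median or of vehicle wells; lower values mean less growth of the strain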
condition-set: S. cerevisiae deletion strains, growth OD, locus YHR079C, strain IRE1 (second series), active compounds read low
The campaign covered roughly 5,500 compounds. About 2,000 (36%) were called active. Another 18% or so got no clear call; they are omitted. Some of the results follow.
observation-type: normalized growth
Lab note: record the figure alone, no unit after it.

Quick one: normalized growth of C[C@H]1[C@H](C)CC[C@]2(CO)CC[C@]3(C)C(=CCC4[C@@]5(C)CC[C@H](O)C(C)(C)C5CC[C@]43C)[C@H]12 (stereo partly specified) ?
1.02

Requested field: normalized growth. Item: CC1(C)CC[C@@]2(C(=O)O)C(C1)C1=CCC3[C@@]4(C)CC[C@H](O)C(C)(C)C4CC[C@@]3(C)[C@]1(C)C[C@@H]2O (stereo partly specified)
1.01

Form field: reported normalized growth of C[C@@H]1CC[C@]2(C(=O)O)CC[C@]3(C)C(=CCC4[C@@]5(C)CC[C@H](O)C(C)(C)C5CC[C@]43C)C2[C@H]1C (stereo partly specified)
0.996

I am curious: what normalized growth value has been reported for N[C@H](C(=O)O)[C@@H]1CC(Cl)=NO1 ?
0.186

Please look up its normalized growth: C/C=C(/C)C(=O)O[C@@H]1[C@H](OC(C)=O)[C@@]2(CO)C(CC1(C)C)C1=CCC3[C@@]4(C)CC[C@H](O[C@@H]5O[C@H](C(=O)O)[C@@H](O[C@@H]6O[C@H](CO)[C@@H](O)[C@H](O)[C@H]6O)[C@H](O)[C@H]5O[C@@H]5O[C@H](CO)[C@@H](O)[C@H](O)[C@H]5O)[C@](C)(CO)C4CC[C@@]3(C)[C@]1(C)C[C@H]2O (stereo partly specified)
1.03

# get_value(readout='normalized growth', item= CCOP(=S)(OCC)Oc1cc(C)nc(C(C)C)n1 )
0.994
